- experimentNotes: Human HepG2 cell viability assay in 384 well format
- Type: toxicity, cell-based
- Design: dose 125 nL, time 70.5 hour; concentration not given beside the values
- settings: HepG2 cells, read-out: Inhibition
assayMetric: cytotoxicity at 70.5 h (%)
Report as a plain number; the unit % is understood.

Problem: Recorded cytotoxicity at 70.5 h of Cc1cc(CN2CCN(C(=O)NC(C)c3cccnc3)CC2)on1 (stereo unspecified) , please.
Result: -11.7

Problem: Recorded cytotoxicity at 70.5 h of N#Cc1ccc(C(=O)N2CC(c3nc(-c4ncccn4)no3)C2)cc1 , please.
Result: -13.2

Problem: Recorded cytotoxicity at 70.5 h of CN(C)C(=O)CS(=O)(=O)Cc1cc(Cl)c2c(c1)OCCO2 , please.
Result: 3.21

Problem: Recorded cytotoxicity at 70.5 h of Cc1nonc1OCCNC(=O)COc1ccc(Cl)cc1Cl , please.
Result: -13.9

Problem: Recorded cytotoxicity at 70.5 h of CN1C(=O)c2cccc(NC(=O)c3ccc4c(c3)OCCO4)c2C1=O , please.
Result: 21.1

Problem: Recorded cytotoxicity at 70.5 h of CCC[C@@H]1CN(C(=O)c2ccccc2-c2ccccc2)C[C@H]1N(C)C , please.
Result: 0.165

----------
Hi there, I'd appreciate the recorded cytotoxicity at 70.5 h for every entry that follows.
- experimentNotes: Human HepG2 cell viability assay in 384 well format
- Assay type: toxicity, cell-based
- Design: dose 125 nL, time 70.5 hour; concentration not given beside the values
- settings: HepG2 cells, read-out: Inhibition
Report as a plain number; the unit % is understood.

Problem: Recorded cytotoxicity at 70.5 h of Cc1nn(C2CCS(=O)(=O)C2)c(O)c1Cc1cccc(Cl)c1 (stereo unspecified) , please.
Result: -17.9

Problem: Recorded cytotoxicity at 70.5 h of O=S(=O)(Cc1ccccc1)NCc1ccco1 , please.
Result: -5.52

Problem: Recorded cytotoxicity at 70.5 h of CCC(=O)N1CCC2(CC1)CC(N1CCOCC1)c1cc(C)ccc12 (stereo unspecified) , please.
Result: -13.5

Problem: Recorded cytotoxicity at 70.5 h of CC(c1cccc(-c2nccn2CCc2ccccn2)c1)N(C)C (stereo unspecified) , please.
Result: -7.37

Problem: Recorded cytotoxicity at 70.5 h of CS(=O)(=O)N1CCN(C(=O)c2cc(-c3ccc(Br)s3)n[nH]2)CC1 , please.
Result: -10.2

Problem: Recorded cytotoxicity at 70.5 h of CC(C)c1nnc(N2C[C@@H]3CC[C@H](C2)N(Cc2ccccc2)C3)s1 , please.
Result: -4.82

Problem: Recorded cytotoxicity at 70.5 h of C[S+]([O-])CCNC(=O)N1CCN(c2cc(F)ccc2F)CC1 (stereo unspecified) , please.
Result: 13

Problem: Recorded cytotoxicity at 70.5 h of Cn1c(N)c2c(=O)n(C)c(-c3ccccc3)cc2c(C#N)c1=O , please.
Result: -10.5

Problem: Recorded cytotoxicity at 70.5 h of CSCC(CCO)NC(=O)c1cccc(F)c1Cl (stereo unspecified) , please.
Result: 24.5

Problem: Recorded cytotoxicity at 70.5 h of Cn1cnc2cc(CCC(=O)Nc3n[nH]c(C4CCCO4)n3)ccc21 (stereo unspecified) , please.
Result: 1.89

Problem: Recorded cytotoxicity at 70.5 h of COc1ccc(OC)c(C2C3=C(COC3=O)Nc3[nH]nc(C)c32)c1 (stereo unspecified) , please.
Result: 32

----------
- experimentNotes: Human HepG2 cell viability assay in 384 well format
- Assay type: toxicity, cell-based
- Parameters: dose 125 nL, time 70.5 hour; concentration not given beside the values
- settings: HepG2 cells, read-out: Inhibition
assayMetric: cytotoxicity at 70.5 h (%)
Report as a plain number; the unit % is understood.

Problem: Recorded cytotoxicity at 70.5 h of NS(=O)(=O)N1CCC(C(=O)Nc2cccc(OC(F)F)c2)CC1 , please.
Result: 1.39

Problem: Recorded cytotoxicity at 70.5 h of CCN1CCN(CCCNC(=O)c2cc3ccc(C)cc3nc2C)CC1 , please.
Result: -2.81

Problem: Recorded cytotoxicity at 70.5 h of O=C(c1cc(-n2cccn2)ccn1)N(CC1CCC1)CC(F)(F)F , please.
Result: -3.45

Problem: Recorded cytotoxicity at 70.5 h of CCc1ncc2c(n1)CN(Cc1nnc(C(C)C)o1)CC2 , please.
Result: -99.6

Problem: Recorded cytotoxicity at 70.5 h of COCCN1CCN(Cc2coc(-c3ccccc3Cl)n2)CC1 , please.
Result: -10.2

Problem: Recorded cytotoxicity at 70.5 h of Cc1ccc(NC2CCN(C(=O)c3cccc4[nH]ncc34)CC2)nn1 , please.
Result: -4.9

Problem: Recorded cytotoxicity at 70.5 h of O=C(c1ccncc1F)N1CCN(CC2CC2)c2ncccc2C1 , please.
Result: 24.5

Problem: Recorded cytotoxicity at 70.5 h of Cc1ccc(CN2CCc3c(CN4CCCC4)n[nH]c3C2)s1 , please.
Result: -4.44

Problem: Recorded cytotoxicity at 70.5 h of Cc1cc(N2CCC(O)(CN(C)C)C2)c2cc3c(cc2n1)OCO3 (configuration not stated) , please.
Result: 44.8

Problem: Recorded cytotoxicity at 70.5 h of Cc1ncsc1C(=O)N(C)Cc1cccnc1 , please.
Result: -9.5

Problem: Recorded cytotoxicity at 70.5 h of O=C(Cn1nc(Br)nc1Br)N1CCCC1 , please.
Result: -0.289

Problem: Recorded cytotoxicity at 70.5 h of COCc1nc(C(=O)NS(=O)(=O)c2cc(Br)ccc2C)cs1 , please.
Result: 1.93

----------
- experimentNotes: Human HepG2 cell viability assay in 384 well format
- Type: toxicity, cell-based
- Design: dose 125 nL, time 70.5 hour; concentration not given beside the values
- settings: HepG2 cells, read-out: Inhibition
assayMetric: cytotoxicity at 70.5 h (%)
Report as a plain number; the unit % is understood.

Problem: Recorded cytotoxicity at 70.5 h of CC(C)Sc1nnnn1C1CCCC1 , please.
Result: -9.93

Problem: Recorded cytotoxicity at 70.5 h of COCC(O)CN(C)C(=O)NC1CCN(Cc2ccccn2)CC1 (stereo not given) , please.
Result: -17.1

Problem: Recorded cytotoxicity at 70.5 h of COc1cc(N2CCC3(CCN(Cc4cccnc4)C3=O)C2)ncn1 (stereo not given) , please.
Result: -4.34

Problem: Recorded cytotoxicity at 70.5 h of Cc1ccc(CNC(=O)c2cc(CN3CCC(O)CC3)on2)s1 , please.
Result: -18

Problem: Recorded cytotoxicity at 70.5 h of COc1ccccc1C(O)Cn1cc(C(=O)NCc2ccco2)nn1 (stereo not given) , please.
Result: 0.751

Problem: Recorded cytotoxicity at 70.5 h of Cc1cc2ccccc2n1CCC(=O)N1CCN(C)CC1C(N)=O (stereo not given) , please.
Result: -2.15

Problem: Recorded cytotoxicity at 70.5 h of CC(C)(C)c1n[nH]c(C2CN(CCc3cccs3)CCO2)n1 (stereo not given) , please.
Result: 3.37

Problem: Recorded cytotoxicity at 70.5 h of O=C(COCCOc1ccccc1)NC1CCN(c2ncccn2)CC1 , please.
Result: 41.6

Problem: Recorded cytotoxicity at 70.5 h of COc1ccc(NC(=O)N2CCC3(CC2)NC(=O)CC3C(=O)O)c(C)c1 (stereo not given) , please.
Result: -1.09

Problem: Recorded cytotoxicity at 70.5 h of Cc1cc(C)c(CNC(=O)N(C)Cc2nnc3n2CCC3)c(=O)[nH]1 , please.
Result: -10.3

Problem: Recorded cytotoxicity at 70.5 h of Cn1ccnc1COc1ccc(CO)cc1 , please.
Result: -6.37

Problem: Recorded cytotoxicity at 70.5 h of CC(Nc1ccc(Oc2cccc(C#N)c2)cc1)C(=O)NC1CC1 (stereo not given) , please.
Result: -3.83

Problem: Recorded cytotoxicity at 70.5 h of Cc1ccc(N(CC(=O)c2ccc(Br)cc2)C2=NCCCCC2)cc1 , please.
Result: 16.7

Problem: Recorded cytotoxicity at 70.5 h of COCCN1CCc2ncnc(-c3ccccc3)c2CC1 , please.
Result: -5.42

Problem: Recorded cytotoxicity at 70.5 h of CNC(=O)CCc1cc(C)nc(C2CCCCN2)n1 (stereo not given) , please.
Result: -4.98

Problem: Recorded cytotoxicity at 70.5 h of COc1ccccc1OCC(=O)NCc1ncc(C)c(OC)c1C , please.
Result: 11.5

Problem: Recorded cytotoxicity at 70.5 h of CC1CN(C)CCN1C(=O)c1cnn(-c2ccc(Cl)cc2)c1 (stereo not given) , please.
Result: 19.4

Problem: Recorded cytotoxicity at 70.5 h of COc1cccc(S(=O)(=O)CCN2CCC3(CC2)OCCO3)c1 , please.
Result: -18.5

Problem: Recorded cytotoxicity at 70.5 h of CC(C(=O)N1CCC(c2[nH]ncc2-c2ccccc2)CC1)n1cncn1 (stereo not given) , please.
Result: -9.13

Problem: Recorded cytotoxicity at 70.5 h of C[C@@H]1CN(S(=O)(=O)N2CCCCCC2)C[C@@]1(O)C1CCC1 , please.
Result: -8.97

Problem: Recorded cytotoxicity at 70.5 h of CCOC(=O)c1sc2ccsc2c1CNC(=O)CC , please.
Result: -3.4

Problem: Recorded cytotoxicity at 70.5 h of CNC(=O)Cc1csc(NC(=O)C2CSCCC(=O)N2)n1 (stereo not given) , please.
Result: 14.7

Problem: Recorded cytotoxicity at 70.5 h of Cc1nc(C(C)(C)NC(=O)Nc2cccc(C#N)c2)no1 , please.
Result: -2.69

Problem: Recorded cytotoxicity at 70.5 h of Cc1[nH]c2c(F)cccc2c1CC(=O)NCCCc1csc(N)n1 , please.
Result: 5.37

Problem: Recorded cytotoxicity at 70.5 h of Cn1cc(CN2CCC3(CC2)CCN(C(=O)c2cscn2)C3)cn1 , please.
Result: -3.37
